Tested on: MCF-7 cell line
Assay type: cell-based
runConditions: 24 hours incubation, XTT; read-out: Cancer LC50 Human breast cancer MCF-7
Non-standard residues stand in square brackets, D forms with d. Residues, ends and D or L forms follow the SMILES beside them. *: point of attachment. Lauroyl = CCCCCCCCCCCC(=O)*; 12Ado = NCCCCCCCCCCCC(=O)O; Octanoyl = CCCCCCCC(=O)*
recordedMetric: CC50

Reference set, count: 5
NCCCC[C@H](NC(=O)CCCCCCCCCCCNC(=O)[C@H](CCCCN)NC(=O)[C@H](CCCCN)NC(=O)CCCCCCCCCCCNC(=O)[C@H](CCCCN)NC(=O)[C@H](CCCCN)NC(=O)CCCCCCCCCCCNC(=O)[C@@H](N)CCCCN)C(N)=O [(KNC12K)3NH2] (H-K[12Ado]KK[12Ado]KK[12Ado]K-NH2)    > 16 µM
CCCCCCCC(=O)N[C@@H](CCCCN)C(=O)N[C@@H](CCCCN)C(=O)NCCCCCCCCCCCC(=O)N[C@@H](CCCCN)C(=O)N[C@@H](CCCCN)C(=O)NCCCCCCCCCCCC(=O)N[C@@H](CCCCN)C(=O)N[C@@H](CCCCN)C(=O)NCCCCCCCCCCCC(=O)N[C@@H](CCCCN)C(N)=O [C8K(KNC12K)3NH2] (Octanoyl-KK[12Ado]KK[12Ado]KK[12Ado]K-NH2)    5.7 µM
NCCCC[C@H](NC(=O)CCCCCCCCCCCNC(=O)[C@H](CCCCN)NC(=O)[C@H](CCCCN)NC(=O)CCCCCCCCCCCNC(=O)[C@H](CCCCN)NC(=O)[C@H](CCCCN)NC(=O)CCCCCCCCCCCNC(=O)[C@H](CCCCN)NC(=O)[C@@H](N)CCCCN)C(N)=O [K(KNC12K)3NH2] (H-KK[12Ado]KK[12Ado]KK[12Ado]K-NH2)    > 16 µM
NCCCCCCCCCCCC(=O)N[C@@H](CCCCN)C(=O)N[C@@H](CCCCN)C(=O)NCCCCCCCCCCCC(=O)N[C@@H](CCCCN)C(=O)N[C@@H](CCCCN)C(=O)NCCCCCCCCCCCC(=O)N[C@@H](CCCCN)C(N)=O [NC12K(KNC12K)2NH2] (H-[12Ado]KK[12Ado]KK[12Ado]K-NH2)    > 16 µM
CCCCCCCCCCCC(=O)N[C@@H](CCCCN)C(=O)N[C@@H](CCCCN)C(=O)NCCCCCCCCCCCC(=O)N[C@@H](CCCCN)C(=O)N[C@@H](CCCCN)C(=O)NCCCCCCCCCCCC(=O)N[C@@H](CCCCN)C(=O)N[C@@H](CCCCN)C(=O)NCCCCCCCCCCCC(=O)N[C@@H](CCCCN)C(N)=O (Lauroyl-KK[12Ado]KK[12Ado]KK[12Ado]K-NH2)    8 µM

Then there is this compound:
Q. Would you kindly share the measured CC50 for NCCCC[C@H](NC(=O)CCCCCCCCCCCNC(=O)[C@H](CCCCN)NC(=O)[C@H](CCCCN)NC(=O)CCCCCCCCCCCNC(=O)[C@@H](N)CCCCN)C(N)=O [(KNC12K)2NH2] (HELM PEPTIDE1{K.[O=C(CCCCCCCCCCCN[*:1])[*:2]].K.K.[O=C(CCCCCCCCCCCN[*:1])[*:2]].K.[am]}$$$$V2.0) ?
A. > 16 µM

====

protocol: XTT cell viability assay, non-cancerous cardiac fibroblasts (CF)
Format: cell-based, rat
runConditions: rat, LC50 against non-cancerous CF cells
Non-standard residues stand in square brackets, D forms with d. Residues, ends and D or L forms follow the SMILES beside them. *: point of attachment. Lauroyl = CCCCCCCCCCCC(=O)*; 12Ado = NCCCCCCCCCCCC(=O)O; Octanoyl = CCCCCCCC(=O)*
recordedMetric: CC50 at 24 h (µM)
Express the result in µM but write the number alone.

CCCCCCCCCCCC(=O)N[C@@H](CCCCN)C(=O)NCCCCCCCCCCCC(=O)N[C@@H](CCCCN)C(=O)N[C@@H](CCCCN)C(=O)NCCCCCCCCCCCC(=O)N[C@@H](CCCCN)C(N)=O [C12(KNC12K)2NH2] (Lauroyl-K[12Ado]KK[12Ado]K-NH2)    67

Q. Report CC50 at 24 h for CCCCCCCC(=O)N[C@@H](CCCCN)C(=O)N[C@@H](CCCCN)C(=O)NCCCCCCCCCCCC(=O)N[C@@H](CCCCN)C(=O)N[C@@H](CCCCN)C(=O)NCCCCCCCCCCCC(=O)N[C@@H](CCCCN)C(=O)N[C@@H](CCCCN)C(=O)NCCCCCCCCCCCC(=O)N[C@@H](CCCCN)C(N)=O [C8K(KNC12K)3NH2] (Octanoyl-KK[12Ado]KK[12Ado]KK[12Ado]K-NH2) please.
A. 25

====

Entries and their measured CC50 follow.
System: MCF-7 cell line
Assay type: cell-based
runConditions: 24 hours incubation, XTT; read-out: Cancer LC50 Human breast cancer MCF-7
Non-standard residues stand in square brackets, D forms with d. Residues, ends and D or L forms follow the SMILES beside them. *: point of attachment. Lauroyl = CCCCCCCCCCCC(=O)*; 12Ado = NCCCCCCCCCCCC(=O)O
The reply should contain only the number, in µM.

CCCCCCCCCCCC(=O)N[C@@H](CCCCN)C(=O)N[C@@H](CCCCN)C(=O)NCCCCCCCCCCCC(=O)N[C@@H](CCCCN)C(=O)N[C@@H](CCCCN)C(=O)NCCCCCCCCCCCC(=O)N[C@@H](CCCCN)C(N)=O [C12K(KNC12K)2NH2] (Lauroyl-KK[12Ado]KK[12Ado]K-NH2)    12

Then this compound:
Q. What measured CC50 goes with CCCCCCCCCCCC(=O)N[C@@H](CCCCN)C(=O)NCCCCCCCCCCCC(=O)N[C@@H](CCCCN)C(=O)N[C@@H](CCCCN)C(=O)NCCCCCCCCCCCC(=O)N[C@@H](CCCCN)C(=O)N[C@@H](CCCCN)C(=O)NCCCCCCCCCCCC(=O)N[C@@H](CCCCN)C(N)=O (Lauroyl-K[12Ado]KK[12Ado]KK[12Ado]K-NH2) ?
A. 6

====

protocol: XTT cell viability assay, non-cancerous cardiac fibroblasts (CF)
Format: cell-based, rat
runConditions: rat, primary non-cancerous cardiac fibroblasts (CF), 24 hours incubation, XTT, non-cancerous cells; read-out: Cancer LC50 Rat primary cardiac fibroblast CF
Experimental: Primary non-cancerous rat cardiac fibroblasts (CF); […] Thereafter, a series of increasing concentrations of the polymers were added. […] The optical density of the cells was measured at 450 nm by ELISA plate reader after 2-4 hours XTT incubation. Cell viability was determined relative to a control having no polymer added thereto. […]
Non-standard residues stand in square brackets, D forms with d. Residues, ends and D or L forms follow the SMILES beside them. *: point of attachment. Lauroyl = CCCCCCCCCCCC(=O)*; 12Ado = NCCCCCCCCCCCC(=O)O
recordedMetric: CC50 at 24 h (µM)
Provide only the numeric value, understood in µM.

NCCCCCCCCCCCC(=O)N[C@@H](CCCCN)C(=O)N[C@@H](CCCCN)C(=O)NCCCCCCCCCCCC(=O)N[C@@H](CCCCN)C(=O)N[C@@H](CCCCN)C(=O)NCCCCCCCCCCCC(=O)N[C@@H](CCCCN)C(=O)N[C@@H](CCCCN)C(=O)NCCCCCCCCCCCC(=O)N[C@@H](CCCCN)C(N)=O (H-[12Ado]KK[12Ado]KK[12Ado]KK[12Ado]K-NH2)    35

Q. Which CC50 at 24 h value is on record for CCCCCCCCCCCC(=O)N[C@@H](CCCCN)C(=O)NCCCCCCCCCCCC(=O)N[C@@H](CCCCN)C(=O)N[C@@H](CCCCN)C(=O)NCCCCCCCCCCCC(=O)N[C@@H](CCCCN)C(N)=O [C12(KNC12K)2NH2] (Lauroyl-K[12Ado]KK[12Ado]K-NH2) ?
A. 67

====

Test system: TRAMP-C2 cell line
Format: cell-based
runConditions: 24 hours incubation, XTT; read-out: Cancer LC50 Mouse prostate cancer TRAMP-C2
Non-standard residues stand in square brackets, D forms with d. Residues, ends and D or L forms follow the SMILES beside them. *: point of attachment. 12Ado = NCCCCCCCCCCCC(=O)O; Octanoyl = CCCCCCCC(=O)*
recordedMetric: CC50 (µM)
Answer in µM, number only, no unit symbol.

Q. Request the reported CC50 associated with CCCCCCCC(=O)N[C@@H](CCCCN)C(=O)NCCCCCCCCCCCC(=O)N[C@@H](CCCCN)C(=O)N[C@@H](CCCCN)C(=O)NCCCCCCCCCCCC(=O)N[C@@H](CCCCN)C(=O)N[C@@H](CCCCN)C(=O)NCCCCCCCCCCCC(=O)N[C@@H](CCCCN)C(N)=O [C8(KNC12K)3NH2] (Octanoyl-K[12Ado]KK[12Ado]KK[12Ado]K-NH2)
A. 15
